// pKi collected for Tyrosinase (Agaricus bisporus, UniProt O42713)
Schema: pKi number; meaning minus log10 of the concentration expressed in molar units.

{"molecule": "Nc1nc2nc[nH]c2c(=S)[nH]1 [THIOGUANINE]", "pKi": 4.28}

Then this molecule:
input: Please look at Sc1ncnc2nc[nH]c12 [MERCAPTOPURINE ANHYDROUS] and tell me its recorded pKi on Tyrosinase (Agaricus bisporus, UniProt O42713).
Sequence (O42713 whole entry): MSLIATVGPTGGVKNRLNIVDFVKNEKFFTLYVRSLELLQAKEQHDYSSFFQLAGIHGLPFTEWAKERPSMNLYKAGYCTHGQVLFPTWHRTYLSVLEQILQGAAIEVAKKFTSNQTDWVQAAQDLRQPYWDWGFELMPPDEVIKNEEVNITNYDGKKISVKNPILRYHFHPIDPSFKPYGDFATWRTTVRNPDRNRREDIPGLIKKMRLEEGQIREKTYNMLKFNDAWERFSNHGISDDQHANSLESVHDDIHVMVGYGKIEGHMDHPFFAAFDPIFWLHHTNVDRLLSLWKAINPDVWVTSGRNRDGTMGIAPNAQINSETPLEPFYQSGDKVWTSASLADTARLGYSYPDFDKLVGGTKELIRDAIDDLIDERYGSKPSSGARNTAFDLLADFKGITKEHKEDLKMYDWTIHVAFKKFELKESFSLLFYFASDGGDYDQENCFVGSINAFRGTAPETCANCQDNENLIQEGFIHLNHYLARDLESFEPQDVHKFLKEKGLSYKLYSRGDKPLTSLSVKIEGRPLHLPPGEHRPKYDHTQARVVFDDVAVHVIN
output: 4.80

---

experiment: Cytotoxicity against human Huh-7 cells; type: toxicity, cell-based
This section presents compounds with their documented CC50 values.

input: Let me know recorded CC50 for OCCOCCN1CCN(C(c2ccccc2)c2ccc(Cl)cc2)CC1 (stereo not drawn) [HYDROXYZINE] , thanks.
output: > 50 µM

input: Output measured CC50 for this item: CN1CCN(c2nc(C3=C(c4c[nH]c5ccccc45)C(=O)NC3=O)c3ccccc3n2)CC1 [SOTRASTAURIN]
output: > 50 µM

input: Please indicate CC50 recorded for CN1CCN(CCOc2cc(OC3CCOCC3)c3c(Nc4c(Cl)ccc5c4OCO5)ncnc3c2)CC1 [SARACATINIB]
output: > 50 µM

Reference source for all entries: ChEMBL document CHEMBL5233241
